// values below are reported pIC50
Molecular target: Histone deacetylase 1 (Homo sapiens)
Sequence (Q13547 whole entry): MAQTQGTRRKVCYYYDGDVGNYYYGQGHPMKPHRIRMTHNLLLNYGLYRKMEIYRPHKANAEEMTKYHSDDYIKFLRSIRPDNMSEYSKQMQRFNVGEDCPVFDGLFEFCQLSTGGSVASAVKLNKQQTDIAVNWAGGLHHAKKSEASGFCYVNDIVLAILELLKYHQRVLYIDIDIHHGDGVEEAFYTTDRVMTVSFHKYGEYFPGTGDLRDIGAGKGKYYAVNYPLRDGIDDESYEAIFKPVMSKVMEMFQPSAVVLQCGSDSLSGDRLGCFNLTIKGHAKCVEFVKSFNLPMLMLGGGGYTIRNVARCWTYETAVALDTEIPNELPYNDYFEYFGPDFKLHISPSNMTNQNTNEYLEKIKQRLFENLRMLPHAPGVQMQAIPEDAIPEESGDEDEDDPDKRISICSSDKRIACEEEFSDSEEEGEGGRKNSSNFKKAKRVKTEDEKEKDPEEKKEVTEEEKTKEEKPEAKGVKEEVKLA
Test: Inhibition of human recombinant HDAC1 using Boc-lys(Ac)-AMC as substrate preincubated for 20 mins with substrate measured after 60 mins by fluorescence analysis
pIC50: −log10 of the molar value.

# smiles.text, assayed.system, modifier, pIC50
measured = [
    ("COc1ccc(CC(=O)C(=O)NCCSC)cc1Br", "Histone deacetylase 1 (Homo sapiens)", "<", 4.30),
    ("CO/N=C(\\Cc1ccc(OC)c(Br)c1)C(=O)NCCSC", "Histone deacetylase 1 (Homo sapiens)", "<", 4.30),
    ("O=C(CCNC(=O)/C(Cc1ccc(O)c(Br)c1)=N/O)NO", "Histone deacetylase 1 (Homo sapiens)", "=", 8.70),
    ("O=C(CCCNC(=O)/C(Cc1ccc(O)c(Br)c1)=N/O)NO", "Histone deacetylase 1 (Homo sapiens)", "=", 6.51),
    ("CO/N=C(\\Cc1ccc(OC)c(Br)c1)C(=O)NCCS", "Histone deacetylase 1 (Homo sapiens)", "=", 7.82),
]
